# System: NCI-H460;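 also: cell viability assay scoring growth inhibition of human NCI-H460 cells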
# ASSAY SUMMARY: cells
# Type: functional, cell-based
# CONDITION: Homo sapiens
# Description: SANGER: Inhibition of human NCI-H460 cell growth in a cell viability assay.
ENDPOINT LABEL: IC50

Some compounds with known IC50 results, for comparison:
- COMPOUND: "CC1(C)CCC(c2ccc(Cl)cc2)=C(CN2CCN(c3ccc(C(=O)NS(=O)(=O)c4ccc(N[C@H](CCN5CCOCC5)CSc5ccccc5)c(S(=O)(=O)C(F)(F)F)c4)cc3)CC2)C1 [NAVITOCLAX]"
  ENDPOINT LABEL: "IC50"
  TEST VALUE: "> 2 µM"
- COMPOUND: "O=C1NC(=O)c2c1c(-c1ccccc1Cl)cc1[nH]c3ccc(O)cc3c21"
  ENDPOINT LABEL: "IC50"
  TEST VALUE: "> 2 µM"
- COMPOUND: "Cc1ccc(C(=O)Nc2ccc(CN3CCN(C)CC3)c(C(F)(F)F)c2)cc1C#Cc1cnc2cccnn12 [PONATINIB]"
  ENDPOINT LABEL: "IC50"
  TEST VALUE: "> 0.512 µM"
- COMPOUND: "NC(=O)Nc1cc(-c2cccc(F)c2)sc1C(=O)N[C@H]1CCCNC1 [AZD-7762]"
  ENDPOINT LABEL: "IC50"
  TEST VALUE: "1.53 µM"

Turning to the following compound.
Query: Using the record for COC(=O)[C@H](CCSC)NC(=O)c1ccc(NC[C@@H](N)CS)cc1-c1ccccc1 , report its IC50.
Response: > 1.02 µM
